# Study System: CYP1A2 (Homo sapiens, UniProt P05177)
# Construct: from tissue; host or cells: human liver microsomes
# Sequence (P05177 whole entry): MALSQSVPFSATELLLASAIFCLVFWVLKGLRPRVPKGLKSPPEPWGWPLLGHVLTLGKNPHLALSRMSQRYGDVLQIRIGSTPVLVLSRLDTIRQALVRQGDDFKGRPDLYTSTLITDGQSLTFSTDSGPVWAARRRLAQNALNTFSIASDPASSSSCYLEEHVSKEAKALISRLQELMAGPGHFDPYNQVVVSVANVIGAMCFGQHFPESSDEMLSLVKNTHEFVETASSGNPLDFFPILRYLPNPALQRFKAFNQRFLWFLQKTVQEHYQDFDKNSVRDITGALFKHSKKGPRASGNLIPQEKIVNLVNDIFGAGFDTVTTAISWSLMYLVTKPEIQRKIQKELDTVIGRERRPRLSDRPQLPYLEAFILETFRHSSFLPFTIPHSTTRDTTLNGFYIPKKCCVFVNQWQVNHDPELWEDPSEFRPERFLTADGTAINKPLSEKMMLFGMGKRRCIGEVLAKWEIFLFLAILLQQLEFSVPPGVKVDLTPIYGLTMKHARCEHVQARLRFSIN
# Test Summary: CYP inhibition assay, human liver microsomes, substrate tacrine
# Format: in vitro ADME
# Details: human liver microsomes, 10 min incubation, LC-MS/MS; read-out: CYP Inhibition Activity (IC50/nM) CYP1A2
Quick list: IC50 per entry.

> print(dat)
                                   compound                           study.system  recorded.metric  meas.value
1  C[C@@]1(O)CCN(c2ccc(C(F)(F)F)cc2NC(=O)c2ccc(C3CCOCC3)o2)C1  CYP1A2 (Homo sapiens, UniProt P05177)             IC50     5300 nM
2  CN(C)CC1(C)CCN(c2ccc(Cl)cc2NC(=O)c2ccc(C3CCOCC3)o2)CC1  CYP1A2 (Homo sapiens, UniProt P05177)             IC50  > 30000 nM
3  CN1CCC2(CCN(c3ccc(C(F)(F)F)cc3NC(=O)c3ccc(C4CCOCC4)o3)CC2)C1=O  CYP1A2 (Homo sapiens, UniProt P05177)             IC50  > 30000 nM
4  CN(C)C(=O)C1(C)CCN(c2ccc(C(F)(F)F)cc2NC(=O)c2ccc(-c3ccncc3)o2)CC1  CYP1A2 (Homo sapiens, UniProt P05177)             IC50  > 30000 nM
5  CN(C)C(=O)C1(C)CCN(c2ccc(C(F)(F)F)cc2NC(=O)c2ccc(C3CCOCC3)o2)CC1  CYP1A2 (Homo sapiens, UniProt P05177)             IC50  > 30000 nM

Look up IC50 for this compound: Cc1ccc(N2CCC(C)(CO)CC2)c(NC(=O)c2ccc(C3CCOCC3)o2)c1
> 30000 nM

Look up IC50 for this compound: O=C(Nc1cc(C(F)(F)F)ccc1N1CCC(O)CC1)c1ccc(-c2ccncc2)o1
2900 nM

Look up IC50 for this compound: Cc1ccc(N2CCC(C)(C(=O)N(C)C)CC2)c(NC(=O)c2ccc(C3CCOCC3)o2)c1
> 30000 nM

Look up IC50 for this compound: CC1(CO)CCN(c2ccc(C(F)(F)F)cc2NC(=O)c2ccc(C3CCOCC3)o2)CC1
> 30000 nM

Look up IC50 for this compound: CC1(O)CCN(c2ccc(C(F)F)cc2NC(=O)c2ccc(-c3ccncc3)o2)CC1
4000 nM

Look up IC50 for this compound: COc1ccc(N2CCC(C)(O)CC2)c(NC(=O)c2ccc(C3CCOCC3)o2)c1
6270 nM

Look up IC50 for this compound: Cc1ccc(N2CCC(O)CC2)c(NC(=O)c2ccc(C3CCOCC3)o2)c1
6590 nM

Look up IC50 for this compound: CC1(CN2CCCCC2)CCN(c2ccc(C(F)(F)F)cc2NC(=O)c2ccc(C3CCOCC3)o2)CC1
> 30000 nM

Look up IC50 for this compound: O=C(Nc1cc(C(F)(F)F)ccc1N1CCC(O)C1)c1ccc(C2CCOCC2)o1 (racemic)
9160 nM

Look up IC50 for this compound: Cc1ccc(N2CCC(C)(CN(C)C)CC2)c(NC(=O)c2ccc(C3CCOCC3)o2)c1
> 30000 nM

Look up IC50 for this compound: O=C(Nc1cc(C(F)(F)F)ccc1N1CCCC(O)CC1)c1ccc(C2CCOCC2)o1 (racemic)
> 30000 nM

Look up IC50 for this compound: CNCC1(C)CCN(c2ccc(C(F)(F)F)cc2NC(=O)c2ccc(C3CCOCC3)o2)CC1
> 30000 nM

Look up IC50 for this compound: CC1(O)CCN(c2ccc(C(F)(F)F)cc2NC(=O)c2ccc(-c3ccncc3)o2)C1 (racemic)
13000 nM

Look up IC50 for this compound: CC1(C)CCN(c2ccc(C(F)(F)F)cc2NC(=O)c2ccc(-c3ccncc3)o2)CC1
> 30000 nM

Look up IC50 for this compound: CN(C)C(=O)C1(C)CCN(c2ccc(Cl)cc2NC(=O)c2ccc(C3CCOCC3)o2)CC1
> 30000 nM

Look up IC50 for this compound: CC1(C)CCN(c2ccc(Cl)cc2NC(=O)c2ccc(C3CCOCC3)o2)CC1
> 30000 nM

Look up IC50 for this compound: O=C(Nc1cc(Cl)ccc1N1CCCC(O)CC1)c1ccc(C2CCOCC2)o1 (racemic)
16800 nM

Look up IC50 for this compound: O=C(Nc1cc(C2CC2)ccc1N1CCC(O)(CC2CC2)CC1)c1ccc(C2CCOCC2)o1
> 30000 nM

Look up IC50 for this compound: Cc1ccc(N2CCC(C)(C)CC2)c(NC(=O)c2ccc(C3CCOCC3)o2)c1
> 30000 nM

Look up IC50 for this compound: CC1(O)CCN(c2ccc(C(F)(F)F)cc2NC(=O)c2ccc(C3CCOCC3)o2)CC1
17900 nM

----------
# Study System: CYP2D6 (Homo sapiens, UniProt P10635)
# Construct: from tissue; host or cells: human liver microsomes
# Sequence (P10635 whole entry): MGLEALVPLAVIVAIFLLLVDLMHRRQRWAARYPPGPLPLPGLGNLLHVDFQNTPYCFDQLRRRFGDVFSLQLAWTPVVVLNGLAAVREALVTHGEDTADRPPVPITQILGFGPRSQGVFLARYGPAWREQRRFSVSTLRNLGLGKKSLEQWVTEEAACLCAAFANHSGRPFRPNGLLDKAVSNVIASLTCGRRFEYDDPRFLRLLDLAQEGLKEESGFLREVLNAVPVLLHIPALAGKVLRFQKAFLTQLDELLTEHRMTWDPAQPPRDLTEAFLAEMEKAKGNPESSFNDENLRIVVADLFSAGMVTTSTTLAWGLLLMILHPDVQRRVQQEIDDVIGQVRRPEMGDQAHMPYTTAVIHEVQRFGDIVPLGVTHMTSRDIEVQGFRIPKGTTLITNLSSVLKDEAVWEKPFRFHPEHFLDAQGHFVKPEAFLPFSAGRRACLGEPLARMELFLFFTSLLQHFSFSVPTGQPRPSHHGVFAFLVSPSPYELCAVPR
# Test Summary: biochemical
# Assay type: in vitro ADME
Recorded Metric: pIC50
By convention, pIC50 is the negative base-10 log of a molar concentration.

Previously resolved entries follow.
> print(dat)
                                   compound                           study.system  recorded.metric  meas.value
1  CC1(O)CCN(c2ccc(OC(F)(F)F)cc2NC(=O)c2ccc(C3CCOCC3)o2)CC1  CYP2D6 (Homo sapiens, UniProt P10635)            pIC50        4.98
2  C[C@@]1(O)CCN(c2ccc(C(F)(F)F)cc2NC(=O)c2ccc(-c3ccncc3)o2)C1  CYP2D6 (Homo sapiens, UniProt P10635)            pIC50        6.82
3  CN(C)C(=O)C1(C)CCN(c2ccc(C3CC3)cc2NC(=O)c2ccc(C3CCOCC3)o2)CC1  CYP2D6 (Homo sapiens, UniProt P10635)            pIC50        4.72

Look up pIC50 for this compound: O=C(Nc1cc(C2CC2)ccc1N1CCCC(O)CC1)c1ccc(-c2ccncc2)o1 (racemic)
5.82

Look up pIC50 for this compound: Cc1ccc(N2CCC(O)CC2)c(NC(=O)c2ccc(C3CCOCC3)o2)c1
4.67

Look up pIC50 for this compound: O=C(Nc1cc(Cl)ccc1N1CCCC(O)CC1)c1ccc(C2CCOCC2)o1 (racemic)
4.80

Look up pIC50 for this compound: O=C(Nc1cc(C(F)(F)F)ccc1N1CCC(O)CC1)c1ccc(-c2ccncc2)o1
5.68

Look up pIC50 for this compound: Cc1ccc(N2CCC(C)(CN(C)C)CC2)c(NC(=O)c2ccc(C3CCOCC3)o2)c1
6.52

Look up pIC50 for this compound: CC1(N)CCN(c2ccc(C(F)(F)F)cc2NC(=O)c2ccc(-c3ccncc3)o2)CC1
7.00

Look up pIC50 for this compound: CC1(N)CCN(c2ccc(C(F)(F)F)cc2NC(=O)c2ccc(C3CCOCC3)o2)CC1
5.32

Look up pIC50 for this compound: CC1(O)CCN(c2ccc(C(F)F)cc2NC(=O)c2ccc(-c3ccncc3)o2)CC1
5.64

Look up pIC50 for this compound: O=C(Nc1cc(C(F)(F)F)ccc1N1CCC(O)C1)c1ccc(-c2ccncc2)o1 (racemic)
7.40

Look up pIC50 for this compound: CNCC1(C)CCN(c2ccc(C(F)(F)F)cc2NC(=O)c2ccc(-c3ccncc3)o2)CC1
6.40

Look up pIC50 for this compound: O=C(Nc1cc(C(F)(F)F)ccc1N1CCN(Cc2ccco2)CC1)c1ccc(-c2ccncc2)o1 [Reference Example 2, reference compound]
6.59

Look up pIC50 for this compound: CC1(O)CCN(c2ccc(C(F)(F)F)cc2NC(=O)c2ccc(C3CCOCC3)o2)CC1
4.81

Look up pIC50 for this compound: O=C(Nc1cc(C(F)(F)F)ccc1N1CCC(O)(C2CC2)CC1)c1ccc(C2CCOCC2)o1
5.15

----------
Quick list: log10 of IC50 per entry.
# Study System: UniProtKB Q96SB4
# Sequence (Q96SB4 whole entry, species assumed): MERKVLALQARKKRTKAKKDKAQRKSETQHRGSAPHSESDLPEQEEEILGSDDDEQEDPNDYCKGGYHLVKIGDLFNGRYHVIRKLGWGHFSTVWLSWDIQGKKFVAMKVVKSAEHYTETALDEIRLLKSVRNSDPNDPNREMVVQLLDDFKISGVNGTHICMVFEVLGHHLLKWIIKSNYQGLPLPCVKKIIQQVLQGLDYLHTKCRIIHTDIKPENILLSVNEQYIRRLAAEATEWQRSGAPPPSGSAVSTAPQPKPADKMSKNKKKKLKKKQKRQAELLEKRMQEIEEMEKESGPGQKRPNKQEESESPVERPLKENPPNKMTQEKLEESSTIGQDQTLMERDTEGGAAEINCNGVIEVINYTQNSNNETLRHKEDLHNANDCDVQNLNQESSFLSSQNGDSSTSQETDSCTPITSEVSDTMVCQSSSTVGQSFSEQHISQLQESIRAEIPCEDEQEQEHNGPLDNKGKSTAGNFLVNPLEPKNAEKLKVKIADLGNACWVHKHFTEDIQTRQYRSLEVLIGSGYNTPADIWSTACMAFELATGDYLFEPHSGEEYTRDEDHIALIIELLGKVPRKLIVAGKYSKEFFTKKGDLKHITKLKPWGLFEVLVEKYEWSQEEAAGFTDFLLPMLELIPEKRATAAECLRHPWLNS
# Test Summary: In vitro SRPK1 assay (Kinase-Glo)
# Assay type: biochemical
Lab note - IC50 converted to log10 from values in nM.

> print(dat)
                                   molecule  recorded.metric  meas.value
1  O=C(Nc1cc(C2CC2)ccc1N1CCCC(O)CC1)c1ccc(C2CCOCC2)o1 (racemic) [Example 49]    log10 of IC50        0.72
2  CN(C)C(=O)C1(C)CCN(c2ccc(C3CC3)cc2NC(=O)c2ccc(C3CCOCC3)o2)CC1 [Example 86]    log10 of IC50        0.95

Look up log10 of IC50 for this molecule: CC1(C(N)=O)CCN(c2ccc(C(F)(F)F)cc2NC(=O)c2ccc(C3CCOCC3)o2)CC1 [Example 75]
0.45

Look up log10 of IC50 for this molecule: CC1(CN2CCCC2)CCN(c2ccc(C(F)(F)F)cc2NC(=O)c2ccc(C3CCOCC3)o2)CC1 [Example 95]
1.38

Look up log10 of IC50 for this molecule: CC1(C)CCN(c2ccc(Cl)cc2NC(=O)c2ccc(C3CCOCC3)o2)CC1 [Example 65]
0.99

Look up log10 of IC50 for this molecule: CC1(O)CCN(c2ccc(C(F)(F)F)cc2NC(=O)c2ccc(-c3ccncc3)o2)CC1 [Example 4]
0.70

Look up log10 of IC50 for this molecule: CC1(O)CCN(c2ccc(Cl)cc2NC(=O)c2ccc(-c3ccncc3)o2)CC1 [Example 5]
-0.30

Look up log10 of IC50 for this molecule: C[C@@]1(O)CCN(c2ccc(C(F)(F)F)cc2NC(=O)c2ccc(C3CCOCC3)o2)C1 [Example 50]
1.46
